- Tested on: UACC-257
- Format: cell-based
- condition.notes: Homo sapiens; UACC-257; five dose; read-out: LC50 (the source's name)
value.type: CC50 (µM)
Quick reminder: number only, in µM, skip the unit.

>>> endpoint_result("CN(C)CCNc1nc2ccccc2c2c(=O)c3cc(Cl)ccc3sc12")
5.93

Recorded CC50 of O=c1c2cc(Cl)ccc2sc2c(NCCCNCCO)nc3ccccc3c12 , please.
6.33

Try this compound too: NCCNc1nc2ccccc2c2c(=O)c3cc(Cl)ccc3sc12
6.7

----------
- Tested on: OVCAR-5
- Assay type: cell-based
- condition.notes: Ovarian cancer; 10^−5 molar; 48 hours; SRB
value.type: Growth percent OVCAR-5 (%)
Quick note: give the figure in %, leave out the unit.

Example molecules with recorded Growth percent OVCAR-5:
>>> endpoint_result("CCC(CO)Nc1nc2ccccc2c2c(=O)c3cc(Cl)ccc3sc12 (stereo not shown) [Compound N12]")
88.01
>>> endpoint_result("CC(C)CC(C)Nc1nc2ccccc2c2c(=O)c3cc(Cl)ccc3sc12 (stereo not shown) [Compound N13]")
101.36
>>> endpoint_result("O=c1c2ccc(Cl)cc2sc2c(Cl)nc3ccccc3c12 [Compound 3]")
100.07
>>> endpoint_result("O=c1c2cc(Cl)ccc2sc2c(NCCO)nc3ccccc3c12 [Compound N9]")
101.56

Alright, here's another molecule for you.
# input molecule: O=c1c2cc(Cl)ccc2sc2c(N3CCN(Cc4ccccc4)CC3)nc3ccccc3c12 [Compound 11] ; wanted: its Growth percent OVCAR-5
111.92

----------
Entries with reported GI50 on HOP-62

Look over these answered cases.
>>> endpoint_result("NCCNc1nc2ccccc2c2c(=O)c3cc(Cl)ccc3sc12")
"1.47 µM"
>>> endpoint_result("O=c1c2cc(Cl)ccc2sc2c(NCCCNCCO)nc3ccccc3c12")
"1.38 µM"
>>> endpoint_result("CCNc1nc2ccccc2c2c(=O)c3cc(Cl)ccc3sc12")
"13.3 µM"
>>> endpoint_result("CN(C)CCNc1nc2ccccc2c2c(=O)c3cc(Cl)ccc3sc12")
"1.54 µM"

API: the following record is the query input.
What does the data say about its GI50? Entry: O=c1c2cc(Cl)ccc2sc2c(NCc3ccccc3)nc3ccccc3c12
2.43 µM

----------
- Test system: KM12
- procedure.text: cells
- Format: cell-based
- condition.notes: KM12; five dose
value.type: TGI (µM)
Report as a plain number; the unit µM is understood.

Please review the following examples before continuing.
>>> endpoint_result("NCCNc1nc2ccccc2c2c(=O)c3cc(Cl)ccc3sc12 [Compound N14]")
3.11
>>> endpoint_result("CN(C)CCNc1nc2ccccc2c2c(=O)c3cc(Cl)ccc3sc12 [Compound N7]")
3.28

# next molecule below
Form field - read-out: TGI; system: KM12; submitted item: O=c1c2cc(Cl)ccc2sc2c(NCCCNCCO)nc3ccccc3c12 [Compound N19]
3.31

----------
- Test system: PC-3 cell line
- procedure.text: MTT assay for cell cytotoxicity
- Format: cell-based, human
- condition.notes: Homo sapiens, PC-3, 72 h, read-out: MTT assay (IC50 ± SD) PC-3
value.type: pIC50
Just the number, please; pIC50 means minus log10 of the concentration in mol/L.

For the molecule shown here, CC(C)CC(C)Nc1nc2ccccc2c2c(=O)c3cc(Cl)ccc3sc12 (stereo not shown) , give the reported pIC50.
4.98
